All figures here come from PubChem BioAssay.

Experiment: JHH-DIPG-1 glioma cell viability, MIPE5.0 library, CellTiter-Glo luminescence, qHTS (AID 1347067);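 also: cells exposed to compound for 48 hours before readout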
Conditions: JHH-DIPG-1 glioma viability, CellTiter-Glo ATP luminescence
Records with an inconclusive call do not appear. Calls of active or inactive are those of the source. The limit is not given here; nearly all actives have AC50 up to about 26 µM.
Classes used: T = active, F = inactive

- compound: "COC(=O)[C@@H](N)CCCN=C(N)N[N+](=O)[O-]"
  class.label: "F"
- compound: "CC(C)C[C@H](CN)CC(=O)O"
  class.label: "F"
- compound: "CN[C@@H]1Cc2cccc3[nH]c(=O)n(c23)C1"
  class.label: "F"
- compound: "Cn1c(CCCCCCC(=O)NO)nc2cc(N(CCCl)CCCl)ccc21"
  class.label: "T"
- compound: "O=P1(N(CCCl)CCCl)NCCCO1 (configuration not stated)"
  class.label: "F"
- compound: "CCOP(=O)(OCC)C(C)NC(=O)N(CCCl)N=O (configuration not stated)"
  class.label: "F"
- compound: "COc1cc(C)[nH]c(=O)c1CNC(=O)c1c(C)n([C@H](C)C2CCN(CC(F)(F)F)CC2)c2ccccc12"
  class.label: "F"
- compound: "CCc1c(C(=O)C(N)=O)c2c(OCC(=O)O)cccc2n1Cc1ccccc1"
  class.label: "F"
- compound: "CN1C(=O)[C@@H](NC(=O)[C@H](CCC(F)(F)F)[C@H](CCC(F)(F)F)C(N)=O)N=C(c2ccccc2)c2ccccc21"
  class.label: "F"
- compound: "CC(C)CC(N(C)C)C1(c2ccc(Cl)cc2)CCC1 (configuration not stated)"
  class.label: "F"
- compound: "CC(=O)c1c(O)c(C)c(O)c(Cc2c(O)c3c(c(C(=O)/C=C/c4ccccc4)c2O)OC(C)(C)C=C3)c1O"
  class.label: "T"
- compound: "CC[C@H]1/C=C\\C=C/C[C@@H](C)[C@H](O)[C@@](C)(O)C(=O)[C@@H](C)[C@H](O)[C@@H](C)C(=O)[C@@H](C)[C@H](O)[C@@H](C)/C=C/C(=O)O[C@@H]2[C@H](C)[C@H](CC1)O[C@]1(CC[C@H](C)[C@H](C[C@@H](C)O)O1)[C@H]2C"
  class.label: "T"
- compound: "COc1cccc2c1C(=O)c1c(O)c3c(c(O)c1C2=O)C[C@@](O)(C(=O)CO)CC3OC1CC(N2CCOC(OC)C2)C(O)C(C)O1 (some centres not stated)"
  class.label: "T"
- compound: "CO[C@H]1CCC(O[C@H]2C[C@H]([C@]3(C)CC[C@]4(C[C@H](O)[C@@H](C)[C@@H]([C@@H](C)/C=C(\\C)C(=O)[C@H](C)C[C@H](C)C(=O)O)O4)O3)O[C@]3(O[C@@H]([C@H]4O[C@@](O)(CO)[C@H](C)C[C@@H]4C)C[C@@H]3C)[C@@H]2C)O[C@@H]1C (some centres not stated)"
  class.label: "T"
- compound: "CC(C)c1cccc(C(C)C)c1O"
  class.label: "F"
- compound: "CC(C)(O)/C=C\\C(=O)[C@](C)(O)[C@H]1[C@H](O)C[C@]2(C)[C@@H]3CC=C4[C@@H](C=C(O)C(=O)C4(C)C)[C@]3(C)C(=O)C[C@@]12C"
  class.label: "T"
- compound: "C[C@@H]1O[C@@H](O[C@H]2C[C@@H](O)[C@]3(CO)[C@H]4[C@H](O)C[C@]5(C)[C@@H](C6=CC(=O)OC6)CC[C@]5(O)[C@@H]4CC[C@]3(O)C2)[C@H](O)[C@H](O)[C@H]1O"
  class.label: "T"
- compound: "CCOC(=O)Nc1ccc(NCc2ccc(F)cc2)cc1N"
  class.label: "F"
- compound: "CCCCCCC(C)(C)c1cc(O)c2c(c1)OC(C)(C)C1CC=C(CO)C[C@H]21 (some centres not stated)"
  class.label: "T"
- compound: "CNCC(O)c1ccc(O)cc1 (configuration not stated)"
  class.label: "F"
- compound: "O=C(O)C(=O)c1cn(Cc2ccccc2)c2ccc(-c3ccc(OC(F)(F)F)cc3)cc12"
  class.label: "F"
- compound: "COC[C@@H](NC(C)=O)C(=O)NCc1ccccc1"
  class.label: "F"
